Experiment: in vitro
Conditions: mouse, plasma
Non-standard residues stand in square brackets, D forms with d. Residues, ends and D or L forms follow the SMILES beside them. Nle = CCCC[C@H](N)C(=O)O
resultType: remaining at 0.5 h, 1 µM (%)
Numeric answer only, unit % assumed.

Worked cases, answers included:
INSERT INTO measurements (molecule, resulttype, u, obsvalue) VALUES
  ('CC(C)[C@H](NC(=O)[C@@H](N)Cc1ccc(O)cc1)C(=O)N[C@@H](CCC(=O)O)C(=O)NCC(=O)N[C@@H](Cc1c[nH]cn1)C(=O)N[C@@H](Cc1ccccc1)C(=O)N[C@@H](CCCNC(=N)N)C(=O)N[C@H](Cc1c[nH]c2ccccc12)C(=O)N[C@@H](CC(=O)O)C(=O)N[C@@H](CCCNC(=N)N)C(=O)N[C@@H](Cc1ccccc1)C(=O)NCC(N)=O [CTX-1105] (H-YVEGHFR[dW]DRFG-NH2)', 'remaining at 0.5 h, 1 µM', '%', 0.3),
  ('CCCC[C@H](NC(=O)[C@@H](NC(=O)[C@@H](N)Cc1ccc(O)cc1)C(C)C)C(=O)N[C@H](C)C(=O)N[C@@H](Cc1c[nH]cn1)C(=O)N[C@@H](Cc1ccccc1)C(=O)N[C@@H](CCCNC(=N)N)C(=O)N[C@H](Cc1c[nH]c2ccccc12)C(=O)N[C@@H](CC(=O)O)C(=O)N[C@@H](CCCNC(=N)N)C(=O)N[C@H](Cc1ccccc1)C(=O)NCC(=O)O [CTX-1127] (H-YV[Nle][dA]HFR[dW]DR[dF]G-OH)', 'remaining at 0.5 h, 1 µM', '%', 0.27),
  ('CCCC[C@H](NC(=O)[C@@H](NC(=O)[C@@H](N)Cc1ccc(O)cc1)C(C)C)C(=O)N[C@H](C)C(=O)N[C@@H](Cc1c[nH]cn1)C(=O)N[C@@H](Cc1ccccc1)C(=O)N[C@@H](CCCNC(=N)N)C(=O)N[C@H](Cc1c[nH]c2ccccc12)C(=O)N[C@@H](CC(=O)O)C(=O)N[C@H](CCCNC(=N)N)C(=O)N[C@@H](Cc1ccccc1)C(=O)NCC(=O)O [CTX-1126] (H-YV[Nle][dA]HFR[dW]D[dR]FG-OH)', 'remaining at 0.5 h, 1 µM', '%', 0.03);

Proceed to the following item.
[Q] Find the recorded remaining at 0.5 h, 1 µM belonging to CCCC[C@H](NC(=O)[C@@H](NC(C)=O)C(C)C)C(=O)N[C@H](C)C(=O)N[C@@H](Cc1c[nH]cn1)C(=O)N[C@@H](Cc1ccccc1)C(=O)N[C@@H](CCCNC(=N)N)C(=O)N[C@H](Cc1c[nH]c2ccccc12)C(=O)N[C@@H](CC(=O)O)C(=O)N[C@@H](CCCNC(=N)N)C(=O)N[C@@H](Cc1ccccc1)C(=O)NCC(=O)O [CTX-1121] (Ac-V[Nle][dA]HFR[dW]DRFG-OH) and report it.
[A] 91.1

----------
Molecular target: human MC4R (Homo sapiens, UniProt P32245)
Sequence (P32245 whole entry): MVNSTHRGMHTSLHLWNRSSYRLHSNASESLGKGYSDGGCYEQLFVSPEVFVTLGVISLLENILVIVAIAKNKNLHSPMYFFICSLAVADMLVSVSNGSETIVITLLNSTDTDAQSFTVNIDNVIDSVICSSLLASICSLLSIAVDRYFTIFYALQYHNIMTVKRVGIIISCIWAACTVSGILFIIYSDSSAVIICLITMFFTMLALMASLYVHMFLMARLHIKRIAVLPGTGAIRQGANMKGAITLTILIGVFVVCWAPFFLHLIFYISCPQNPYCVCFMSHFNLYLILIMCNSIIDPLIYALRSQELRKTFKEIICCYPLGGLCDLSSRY
Experiment: Intracellular cAMP levels in live cells, MC3R selectivity relative to MC4R
Assay type: cell-based
Settings: cAMP assays in human MC3R and human MC4R stable cell lines
Non-standard residues stand in square brackets, D forms with d. Residues, ends and D or L forms follow the SMILES beside them. Nle = CCCC[C@H](N)C(=O)O
Let's look at some molecules and their measured MC3R selectivity (relative to MC4R).

INSERT INTO measurements (molecule, obsvalue) VALUES
  ('CCCC[C@H](NC(C)=O)C(=O)N[C@H](C)C(=O)N[C@@H](Cc1c[nH]cn1)C(=O)N[C@@H](Cc1ccccc1)C(=O)N[C@@H](CCCNC(=N)N)C(=O)N[C@H](Cc1c[nH]c2ccccc12)C(=O)N[C@@H](CC(=O)O)C(=O)N[C@@H](CCCNC(=N)N)C(=O)N[C@H](Cc1ccccc1)C(=O)N[C@@H](CCCCN)C(=O)O [CTX-1160] (Ac-[Nle][dA]HFR[dW]DR[dF]K-OH)', '1,257'),
  ('CCCC[C@H](NC(C)=O)C(=O)N[C@H](C)C(=O)N[C@@H](Cc1c[nH]cn1)C(=O)N[C@@H](Cc1ccccc1)C(=O)N[C@@H](CCCNC(=N)N)C(=O)N[C@H](Cc1c[nH]c2ccccc12)C(=O)N[C@@H](CC(=O)O)C(=O)N[C@@H](CCCCN)C(=O)N[C@@H](Cc1ccccc1)C(=O)NCC(=O)O [CTX-1535] (Ac-[Nle][dA]HFR[dW]DKFG-OH)', '1,589');

Proceed to the following item.
[Q] Find the recorded MC3R selectivity (relative to MC4R) belonging to CCCC[C@H](NC(C)=O)C(=O)N[C@H](C)C(=O)N[C@@H](Cc1c[nH]cn1)C(=O)N[C@@H](Cc1ccccc1)C(=O)N[C@@H](CCCNC(=N)N)C(=O)N[C@H](Cc1c[nH]c2ccccc12)C(=O)N[C@@H](CC(=O)O)C(=O)N[C@@H](CCCNC(=N)N)C(=O)N[C@@H](Cc1ccccc1)C(=O)N[C@H](C(=O)O)C(C)C [CTX-1538] (Ac-[Nle][dA]HFR[dW]DRFV-OH) and report it.
[A] 1,276

Data credit: patent US20240287154A1
